B1: NEUROD6 (parent)
chain: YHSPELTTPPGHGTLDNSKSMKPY

Variants of: B1
Experiment: protein stability index of a GFP-peptide fusion (GPS, HEK-293T) (PSI 1-6); higher = more stable;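 also: lentivirally expressed fusions sorted by FACS into six bins by GFP to DsRed ratio, PSI derived from sequencing read proportions per bin multiplied by bin number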
Conditions: c terminus: a fixed tail appended
Would you mind classing the entries by protein stability index? Ranges: Low = under 2, Medium = from 2 up to 3, High = 3 and over

Each variant maps to one class by protein stability index. Which class for YHSPELTTPPGHGTLDNSKNMKPY ?
Medium

The entry to classify is YHSPELTTPPGHGTLDNSKSMKPF ; which class holds it?
Medium

Class for YHSPELTTPMGHGTLDNSKSMKPY ?
Low

Note: place this variant into its band. Item: YHSPELTTDPGHGTLDNSKSMKPY
Medium

Any idea which band YHSPELTTPPGHGTLDNSKSEKPY is in?
Medium

Dear colleague, I would appreciate it if you could identify the bin for YHSPELTTPPGHGTLDNMKSMKPY and reply at your convenience.
Low

Band of CHSPELTTPPGHGTLDNSKSMKPY ?
High

Please classify: EHSPELTTPPGHGTLDNSKSMKPY
High

Quick check: band for YHSPCLTTPPGHGTLDNSKSMKPY
Low

Entry YHSWELTTPPGHGTLDNSKSMKPY belongs to which category?
Medium

Which protein stability index category applies to YHSPELTNPPGHGTLDNSKSMKPY here?
Medium

Kindly state the category for this variant: HHSPELTTPPGHGTLDNSKSMKPY
High

Category lookup for the variant YHSPELTTPPGHGTLDNDKSMKPY
Medium

Band for the recorded protein stability index of YHSPELTTPPGHGTLDNSKMMKPY ?
Medium

Into which category would you place YHSPELTTPPGHGTLINSKSMKPY ?
Low

Please classify: YPSPELTTPPGHGTLDNSKSMKPY
High

For the record YHSPELTTPPGHGTLDNSKSMKPG , report the class its protein stability index corresponds to.
Medium

Would you mind sorting YHQPELTTPPGHGTLDNSKSMKPY into the appropriate category?
High

Note: place this variant into its band. Item: YHSPELTTPPGHHTLDNSKSMKPY
Medium

Please classify: YHSPELTTPPGHGKLDNSKSMKPY
Medium

Lab note: sort YHSPELTTPPGVGTLDNSKSMKPY into the matching protein stability index band.
Medium

Hi there! Could you help me figure out the category for YHKPELTTPPGHGTLDNSKSMKPY please?
High

Quick check: band for YHSPELTKPPGHGTLDNSKSMKPY
Medium
